quantity-measured: melting point

[
  {
    "smiles-record": "O=C(O)c1cc(F)cc2c1OCOC2",
    "melting point": "180 to 182 °C"
  },
  {
    "smiles-record": "COC(=O)c1cc(O)no1",
    "melting point": "159 to 160 °C"
  },
  {
    "smiles-record": "NC(=O)c1sc(NCc2ccccc2)nc1N",
    "melting point": "196 to 198 °C"
  }
]

Report melting point for "CSc1nc(=O)[nH]c2c1CCCC2" please.
264 to 266 °C

Report melting point for "N#Cc1ccc(C=NNC(N)=S)cc1" please.
243 to 247 °C
